# Tested on: MCF7 complex spheroid growth, % test/control
# ASSAY OVERVIEW: Anticancer human tumor MCF7 cell line growth inhibition [Asc];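 note: spheroids exposed to compounds for 7 days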;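 for viability, T/C: 100% = DMSO vehicle control wells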
# MEASUREMENT PARAMETERS: second compound 0.316 µM; first compound 0.1 µM; stronger effect = lower value
# From the text: Multicellular complex tumor spheroid response to apoptosis pathway targeting inhibitors Alrizomadlin, Pelcitoclax, and Dasminapant in combination with a variety of drugs and investigational agents in selected tumor cell lines […] Compounds. […] If the clinical Cmax for an agent had not been determined, the highest concentration tested was 10 microM. […]
Lab note - cut at 40% for viability, T/C: rule met if strictly below, rule not met if not.

// query Dear reviewer, please state whether C#Cc1c(F)ccc2cc(O)cc(-c3ncc4c(N5CC6CCC(C5)N6)nc(OCC56CCCN5CC(F)C6)nc4c3F)c12 (configuration not stated) + Cc1c(S(C)(=O)=O)c(-c2cc(F)cc(N3CCN(c4ccc(NS(=O)(=O)c5ccc(NC(CCN6CCC(C(=O)OCCCP(=O)(O)O)CC6)CSc6ccccc6)c(S(=O)(=O)C(F)(F)F)c5)cc4)CC3)c2)c(-c2ccc(Cl)cc2)n1C(C)C has viability, T/C strictly beneath 40%.
// result rule not met

// query Dear reviewer, please state whether C=C(F)C(=O)N1CCN(c2nc(OCC3CCCN3C)nc3c2CCN(c2cccc4cccc(Cl)c24)C3)CC1CC#N (configuration not stated) + Cc1c(S(C)(=O)=O)c(-c2cc(F)cc(N3CCN(c4ccc(NS(=O)(=O)c5ccc(NC(CCN6CCC(C(=O)OCCCP(=O)(O)O)CC6)CSc6ccccc6)c(S(=O)(=O)C(F)(F)F)c5)cc4)CC3)c2)c(-c2ccc(Cl)cc2)n1C(C)C has viability, T/C strictly beneath 40%.
// result rule not met

// query Dear reviewer, please state whether NC1CCC(NC2CC2c2ccccc2)CC1 (configuration not stated) + Cc1c(S(C)(=O)=O)c(-c2cc(F)cc(N3CCN(c4ccc(NS(=O)(=O)c5ccc(NC(CCN6CCC(C(=O)OCCCP(=O)(O)O)CC6)CSc6ccccc6)c(S(=O)(=O)C(F)(F)F)c5)cc4)CC3)c2)c(-c2ccc(Cl)cc2)n1C(C)C has viability, T/C strictly beneath 40%.
// result rule not met

// query Dear reviewer, please state whether Cn1ncnc1[C@H]1c2n[nH]c(=O)c3cc(F)cc(c23)N[C@@H]1c1ccc(F)cc1 + Cc1c(S(C)(=O)=O)c(-c2cc(F)cc(N3CCN(c4ccc(NS(=O)(=O)c5ccc(NC(CCN6CCC(C(=O)OCCCP(=O)(O)O)CC6)CSc6ccccc6)c(S(=O)(=O)C(F)(F)F)c5)cc4)CC3)c2)c(-c2ccc(Cl)cc2)n1C(C)C has viability, T/C strictly beneath 40%.
// result rule not met

// query Dear reviewer, please state whether C#Cc1c(F)ccc2cc(O)cc(-c3ncc4c(N5CC6CCC(C5)N6)nc(OCC56CCCN5CC(F)C6)nc4c3F)c12 (configuration not stated) + CNC(C)C(=O)NC1CN(S(=O)(=O)c2cccc(S(=O)(=O)N3CCC4CCC(C(=O)NC(c5ccccc5)c5ccccc5)N4C(=O)C(NC(=O)C(C)NC)C3)c2)CCC2CCC(C(=O)NC(c3ccccc3)c3ccccc3)N2C1=O has viability, T/C strictly beneath 40%.
// result rule met

// query Dear reviewer, please state whether O=C(c1ccc(F)c(F)c1Nc1ccc(I)cc1F)N1CC(O)([C@@H]2CCCCN2)C1 + Cc1c(S(C)(=O)=O)c(-c2cc(F)cc(N3CCN(c4ccc(NS(=O)(=O)c5ccc(NC(CCN6CCC(C(=O)OCCCP(=O)(O)O)CC6)CSc6ccccc6)c(S(=O)(=O)C(F)(F)F)c5)cc4)CC3)c2)c(-c2ccc(Cl)cc2)n1C(C)C has viability, T/C strictly beneath 40%.
// result rule not met

// query Dear reviewer, please state whether C=C(F)C(=O)N1CCN(c2nc(OCC3CCCN3C)nc3c2CCN(c2cccc4cccc(Cl)c24)C3)CC1CC#N (configuration not stated) + CNC(C)C(=O)NC1CN(S(=O)(=O)c2cccc(S(=O)(=O)N3CCC4CCC(C(=O)NC(c5ccccc5)c5ccccc5)N4C(=O)C(NC(=O)C(C)NC)C3)c2)CCC2CCC(C(=O)NC(c3ccccc3)c3ccccc3)N2C1=O has viability, T/C strictly beneath 40%.
// result rule met

###

# System: MCF7 complex spheroid growth, % test/control
# ASSAY OVERVIEW: Anticancer human tumor MCF7 cell line growth inhibition [Asc];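 note: spheroids exposed to compounds for 7 days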;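 for viability, T/C: 100% = DMSO vehicle control wells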
# MEASUREMENT PARAMETERS: second compound 0.0316 µM; first compound 0.0316 µM; stronger effect = lower value
ATTRIBUTE MEASURED: viability, T/C (%)
Just the number in %, nothing appended.

// query Please indicate viability, T/C recorded for Cn1ncnc1[C@H]1c2n[nH]c(=O)c3cc(F)cc(c23)N[C@@H]1c1ccc(F)cc1 + CNC(C)C(=O)NC1CN(S(=O)(=O)c2cccc(S(=O)(=O)N3CCC4CCC(C(=O)NC(c5ccccc5)c5ccccc5)N4C(=O)C(NC(=O)C(C)NC)C3)c2)CCC2CCC(C(=O)NC(c3ccccc3)c3ccccc3)N2C1=O
// result 9.98

// query Please indicate viability, T/C recorded for NC1CCC(NC2CC2c2ccccc2)CC1 (configuration not stated) + CNC(C)C(=O)NC1CN(S(=O)(=O)c2cccc(S(=O)(=O)N3CCC4CCC(C(=O)NC(c5ccccc5)c5ccccc5)N4C(=O)C(NC(=O)C(C)NC)C3)c2)CCC2CCC(C(=O)NC(c3ccccc3)c3ccccc3)N2C1=O
// result 10.9

###

# System: MCF7 complex spheroid growth, % test/control
# ASSAY OVERVIEW: Anticancer human tumor MCF7 cell line growth inhibition [Asc];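 note: spheroids exposed to compounds for 7 days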
# MEASUREMENT PARAMETERS: curve of first compound; second compound 0.01 µM
pIC50: −log10 of the molar value.
ATTRIBUTE MEASURED: pIC50

// query Please indicate pIC50 recorded for CCN1CCN(Cc2ccc(Nc3ncc(F)c(-c4cc(F)c5nc(C)n(C(C)C)c5c4)n3)nc2)CC1 + CNC(C)C(=O)NC1CN(S(=O)(=O)c2cccc(S(=O)(=O)N3CCC4CCC(C(=O)NC(c5ccccc5)c5ccccc5)N4C(=O)C(NC(=O)C(C)NC)C3)c2)CCC2CCC(C(=O)NC(c3ccccc3)c3ccccc3)N2C1=O
// result > 8.50

// query Please indicate pIC50 recorded for C#Cc1c(F)ccc2cc(O)cc(-c3ncc4c(N5CC6CCC(C5)N6)nc(OCC56CCCN5CC(F)C6)nc4c3F)c12 (stereo not drawn) + CNC(C)C(=O)NC1CN(S(=O)(=O)c2cccc(S(=O)(=O)N3CCC4CCC(C(=O)NC(c5ccccc5)c5ccccc5)N4C(=O)C(NC(=O)C(C)NC)C3)c2)CCC2CCC(C(=O)NC(c3ccccc3)c3ccccc3)N2C1=O
// result > 7.50

// query Please indicate pIC50 recorded for C=CC(=O)N1CCN(c2nc(=O)n(-c3c(C)ccnc3C(C)C)c3nc(-c4c(O)cccc4F)c(F)cc23)C(C)C1 (stereo not drawn) + CNC(C)C(=O)NC1CN(S(=O)(=O)c2cccc(S(=O)(=O)N3CCC4CCC(C(=O)NC(c5ccccc5)c5ccccc5)N4C(=O)C(NC(=O)C(C)NC)C3)c2)CCC2CCC(C(=O)NC(c3ccccc3)c3ccccc3)N2C1=O
// result > 7.50

###

# Tested on: MCF7 complex spheroid growth, % test/control
# ASSAY OVERVIEW: Anticancer human tumor MCF7 cell line growth inhibition [Asc];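 note: spheroids exposed to compounds for 7 days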
# MEASUREMENT PARAMETERS: curve of first compound; second compound 0.00316 µM
ATTRIBUTE MEASURED: pIC50
A value of pIC50 is the negative decimal logarithm of a concentration given in moles per litre.

// query Please indicate pIC50 recorded for COc1c(OCCCN2CCOCC2)ccc2c3n(c(=NC(=O)c4cnc(N)nc4)nc12)CCN3 + CNC(C)C(=O)NC1CN(S(=O)(=O)c2cccc(S(=O)(=O)N3CCC4CCC(C(=O)NC(c5ccccc5)c5ccccc5)N4C(=O)C(NC(=O)C(C)NC)C3)c2)CCC2CCC(C(=O)NC(c3ccccc3)c3ccccc3)N2C1=O
// result 8.49

###

# System: MCF7 complex spheroid growth, % test/control
# ASSAY OVERVIEW: Anticancer human tumor MCF7 cell line growth inhibition [Asc];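 note: spheroids exposed to compounds for 7 days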;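 for viability, T/C: 100% = DMSO vehicle control wells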
# MEASUREMENT PARAMETERS: second compound 0.0316 µM; first compound 0.0316 µM; stronger effect = lower value
Provide the reported viability, T/C of each item.
Just the number in %, nothing appended.

// query Please indicate viability, T/C recorded for COc1c(OCCCN2CCOCC2)ccc2c3n(c(=NC(=O)c4cnc(N)nc4)nc12)CCN3 + CNC(C)C(=O)NC1CN(S(=O)(=O)c2cccc(S(=O)(=O)N3CCC4CCC(C(=O)NC(c5ccccc5)c5ccccc5)N4C(=O)C(NC(=O)C(C)NC)C3)c2)CCC2CCC(C(=O)NC(c3ccccc3)c3ccccc3)N2C1=O
// result 9.42

// query Please indicate viability, T/C recorded for COc1c(OCCCN2CCOCC2)ccc2c3n(c(=NC(=O)c4cnc(N)nc4)nc12)CCN3 + Cc1c(S(C)(=O)=O)c(-c2cc(F)cc(N3CCN(c4ccc(NS(=O)(=O)c5ccc(NC(CCN6CCC(C(=O)OCCCP(=O)(O)O)CC6)CSc6ccccc6)c(S(=O)(=O)C(F)(F)F)c5)cc4)CC3)c2)c(-c2ccc(Cl)cc2)n1C(C)C
// result 48.7

// query Please indicate viability, T/C recorded for C=C(F)C(=O)N1CCN(c2nc(OCC3CCCN3C)nc3c2CCN(c2cccc4cccc(Cl)c24)C3)CC1CC#N (configuration not stated) + Cc1c(S(C)(=O)=O)c(-c2cc(F)cc(N3CCN(c4ccc(NS(=O)(=O)c5ccc(NC(CCN6CCC(C(=O)OCCCP(=O)(O)O)CC6)CSc6ccccc6)c(S(=O)(=O)C(F)(F)F)c5)cc4)CC3)c2)c(-c2ccc(Cl)cc2)n1C(C)C
// result 105

// query Please indicate viability, T/C recorded for CCN1CCN(Cc2ccc(Nc3ncc(F)c(-c4cc(F)c5nc(C)n(C(C)C)c5c4)n3)nc2)CC1 + Cc1c(S(C)(=O)=O)c(-c2cc(F)cc(N3CCN(c4ccc(NS(=O)(=O)c5ccc(NC(CCN6CCC(C(=O)OCCCP(=O)(O)O)CC6)CSc6ccccc6)c(S(=O)(=O)C(F)(F)F)c5)cc4)CC3)c2)c(-c2ccc(Cl)cc2)n1C(C)C
// result 106

// query Please indicate viability, T/C recorded for C=C(F)C(=O)N1CCN(c2nc(OCC3CCCN3C)nc3c2CCN(c2cccc4cccc(Cl)c24)C3)CC1CC#N (configuration not stated) + CNC(C)C(=O)NC1CN(S(=O)(=O)c2cccc(S(=O)(=O)N3CCC4CCC(C(=O)NC(c5ccccc5)c5ccccc5)N4C(=O)C(NC(=O)C(C)NC)C3)c2)CCC2CCC(C(=O)NC(c3ccccc3)c3ccccc3)N2C1=O
// result 13.4

// query Please indicate viability, T/C recorded for C#Cc1c(F)ccc2cc(O)cc(-c3ncc4c(N5CC6CCC(C5)N6)nc(OCC56CCCN5CC(F)C6)nc4c3F)c12 (configuration not stated) + CNC(C)C(=O)NC1CN(S(=O)(=O)c2cccc(S(=O)(=O)N3CCC4CCC(C(=O)NC(c5ccccc5)c5ccccc5)N4C(=O)C(NC(=O)C(C)NC)C3)c2)CCC2CCC(C(=O)NC(c3ccccc3)c3ccccc3)N2C1=O
// result 11.6

// query Please indicate viability, T/C recorded for C=CC(=O)N1CCN(c2nc(=O)n(-c3c(C)ccnc3C(C)C)c3nc(-c4c(O)cccc4F)c(F)cc23)C(C)C1 (configuration not stated) + CNC(C)C(=O)NC1CN(S(=O)(=O)c2cccc(S(=O)(=O)N3CCC4CCC(C(=O)NC(c5ccccc5)c5ccccc5)N4C(=O)C(NC(=O)C(C)NC)C3)c2)CCC2CCC(C(=O)NC(c3ccccc3)c3ccccc3)N2C1=O
// result 12.7
